Consider the following molecules; for each one, report its Percentage of dead honey bee adults (%).
Test system: honeybees (Apis mellifera)
Assay: Airborne toxicity on honeybees in the petri dish assay
Type: in vivo
Conditions: applied concentration 3%, paraffin oil, 24 hours
One number for each entry, in %.

Worked examples, 4 molecules total:
molecule: CC/C=C\CC/C=C/C=O [(E)-2,(Z)-6-nonadienal, trans-2,cis-6-Nonadienal]
Percentage of dead honey bee adults (%): 10
--
molecule: CCCCCCCCC=O [nonanal, Nonanal]
Percentage of dead honey bee adults (%): 0
--
molecule: CCCC/C=C/C=O [(E)-2-heptenal]
Percentage of dead honey bee adults (%): 0
--
molecule: CCCCOC(=O)C1CCCC1 [butyl cyclopentanecarboxylate, Butyl cyclopentanecarboxylate]
Percentage of dead honey bee adults (%): 0

Now look at this one.
CC=CC(=O)CC [4-hexen-3-one] yielded Percentage of dead honey bee adults (%) of 0

---

System: adult D. suzukii flies
Assay: Petri dish assay, dose-range 0.3 to 10% vol in paraffin oil, 24 h exposure (FIG. 3E)
Type: in vivo, Drosophila suzukii
Conditions: dose-range 0.3 to 10% vol in paraffin oil, 24 h exposure, adult D. suzukii
value-kind: concentration at which toxicity is displayed (as low as) (%)
Answers are plain numbers, in %.

compound: CCCCCC/C=C/C=O
experimental-target: adult D. suzukii flies
measurement: 2

// each compound listed below needs its concentration at which toxicity is displayed (as low as)
1. CCCC/C=C/C=C/C=O [(E,E)-2,4-nonadienal]
2. CCCCC/C=C/C=O
3. C=CCOC(=O)C1=CCCC1 [allyl 1-cyclopentene-1-carboxylate, Allyl 1-cyclopentene-1-carboxylate]

[reply]
1. 2
2. 2
3. 0.3

Data origin: patent US11779015B2
